Values compiled from ChEMBL document CHEMBL1152434.

Property: Kd; scope: individual compounds
target of assay: Fatty acid-binding protein, liver (Rattus norvegicus)
method description: Binding affinity to rat recombinant L-FABP low affinity site expressed in Escherichia coli BL21(DE3) at 10 deg C by fluorimetric assay
observed property: Kd (µM)

>>> value_reported("CC(C)(Oc1ccc(C(=O)c2ccc(Cl)cc2)cc1)C(=O)O")
19
>>> value_reported("CC(C)OC(=O)C(C)(C)Oc1ccc(C(=O)c2ccc(Cl)cc2)cc1 [FENOFIBRATE]")
0.15

* * *

target of assay: Fatty acid-binding protein, liver (Rattus norvegicus, UniProt P02692)
method description: Binding affinity to rat recombinant L-FABP high affinity site expressed in Escherichia coli BL21(DE3) at 37 deg C by fluorimetric assay
observed property: Kd (nM)

>>> value_reported("CC(C)(Oc1ccc(C(=O)c2ccc(Cl)cc2)cc1)C(=O)O [FENOFIBRIC ACID]")
420
>>> value_reported("CC(C)OC(=O)C(C)(C)Oc1ccc(C(=O)c2ccc(Cl)cc2)cc1 [FENOFIBRATE]")
62
>>> value_reported("CCOC(=O)C(C)(C)Oc1ccc(Cl)cc1 [CLOFIBRATE]")
11000

* * *

target of assay: Fatty acid-binding protein, liver (Rattus norvegicus)
Sequence (P02692 whole entry): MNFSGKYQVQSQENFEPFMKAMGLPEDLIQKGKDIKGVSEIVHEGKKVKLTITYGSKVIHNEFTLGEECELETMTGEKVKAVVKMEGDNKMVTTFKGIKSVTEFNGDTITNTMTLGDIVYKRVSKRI
method description: Binding affinity to rat recombinant L-FABP low affinity site expressed in Escherichia coli BL21(DE3) at 37 deg C by fluorimetric assay
pKd: −log10 of the molar value.
observed property: pKd

>>> value_reported("CC(C)OC(=O)C(C)(C)Oc1ccc(C(=O)c2ccc(Cl)cc2)cc1 [FENOFIBRATE]")
6.49
>>> value_reported("CC(C)(Oc1ccc(C(=O)c2ccc(Cl)cc2)cc1)C(=O)O [FENOFIBRIC ACID]")
4.55

* * *

target of assay: Fatty acid-binding protein, liver (Rattus norvegicus)
method description: Binding affinity to rat recombinant L-FABP low affinity site expressed in Escherichia coli BL21(DE3) at 25 deg C by fluorimetric assay
pKd: −log10 of the molar value.
observed property: pKd

>>> value_reported("CC(C)OC(=O)C(C)(C)Oc1ccc(C(=O)c2ccc(Cl)cc2)cc1 [FENOFIBRATE]")
6.60
>>> value_reported("CC(C)(Oc1ccc(C(=O)c2ccc(Cl)cc2)cc1)C(=O)O")
4.62

* * *

Property: Kd; scope: individual compounds
target of assay: Fatty acid-binding protein, liver (Rattus norvegicus)
Sequence (P02692 whole entry): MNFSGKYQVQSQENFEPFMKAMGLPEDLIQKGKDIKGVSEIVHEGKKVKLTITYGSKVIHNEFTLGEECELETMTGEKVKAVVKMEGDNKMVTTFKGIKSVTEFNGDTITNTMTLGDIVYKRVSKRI
method description: Binding affinity to rat recombinant L-FABP high affinity site expressed in Escherichia coli BL21(DE3) at 15 deg C by fluorimetric assay
observed property: Kd (nM)

>>> value_reported("CC(C)(Oc1ccc(C(=O)c2ccc(Cl)cc2)cc1)C(=O)O [FENOFIBRIC ACID]")
160
>>> value_reported("CCOC(=O)C(C)(C)Oc1ccc(Cl)cc1 [CLOFIBRATE]")
7300
>>> value_reported("CC(C)OC(=O)C(C)(C)Oc1ccc(C(=O)c2ccc(Cl)cc2)cc1 [FENOFIBRATE]")
24

* * *

target of assay: Fatty acid-binding protein, liver (Rattus norvegicus)
method description: Binding affinity to rat recombinant L-FABP high affinity site expressed in Escherichia coli BL21(DE3) assessed as occupancy at a drug-protein molar ratio of 3:1 by NMR chemical shift perturbation method
Property: Activity; scope: individual molecules
observed property: Activity

>>> value_reported("CC(C)OC(=O)C(C)(C)Oc1ccc(C(=O)c2ccc(Cl)cc2)cc1 [FENOFIBRATE]")
"100%"
>>> value_reported("CC(C)(Oc1ccc(C(=O)c2ccc(Cl)cc2)cc1)C(=O)O [FENOFIBRIC ACID]")
"100%"
>>> value_reported("CCOC(=O)C(C)(C)Oc1ccc(Cl)cc1 [CLOFIBRATE]")
"99%"
>>> value_reported("Cc1ccc(C)c(OCCCC(C)(C)C(=O)O)c1")
"100%"
>>> value_reported("CC(C)(Oc1ccc(C2CC2(Cl)Cl)cc1)C(=O)O (stereo unspecified)")
"100%"

* * *

Property: Kd; scope: individual molecules
target of assay: UniProt:P02692
Sequence (P02692 whole entry): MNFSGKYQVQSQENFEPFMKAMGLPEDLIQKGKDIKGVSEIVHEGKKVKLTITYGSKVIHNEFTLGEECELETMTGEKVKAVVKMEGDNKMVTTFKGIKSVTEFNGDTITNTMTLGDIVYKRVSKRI
method description: Binding affinity to rat recombinant L-FABP low affinity site expressed in Escherichia coli BL21(DE3) at 30 deg C by fluorimetric assay
observed property: Kd

>>> value_reported("CC(C)(Oc1ccc(C(=O)c2ccc(Cl)cc2)cc1)C(=O)O [FENOFIBRIC ACID]")
"27 µM"
>>> value_reported("CC(C)OC(=O)C(C)(C)Oc1ccc(C(=O)c2ccc(Cl)cc2)cc1 [FENOFIBRATE]")
"0.27 µM"

* * *

target of assay: Fatty acid-binding protein, liver (Rattus norvegicus, UniProt P02692)
method description: Binding affinity to rat recombinant L-FABP high affinity site expressed in Escherichia coli BL21(DE3) at 42 deg C by fluorimetric assay
observed property: Kd

>>> value_reported("CCOC(=O)C(C)(C)Oc1ccc(Cl)cc1 [CLOFIBRATE]")
"12 µM"

* * *

target of assay: Fatty acid-binding protein, liver (Rattus norvegicus, UniProt P02692)
method description: Binding affinity to rat recombinant L-FABP high affinity site expressed in Escherichia coli BL21(DE3) at 20 deg C by fluorimetric assay
pKd: −log10 of the molar value.
observed property: pKd

>>> value_reported("CCOC(=O)C(C)(C)Oc1ccc(Cl)cc1 [CLOFIBRATE]")
5.11
>>> value_reported("CC(C)(Oc1ccc(C(=O)c2ccc(Cl)cc2)cc1)C(=O)O")
6.66
>>> value_reported("CC(C)OC(=O)C(C)(C)Oc1ccc(C(=O)c2ccc(Cl)cc2)cc1 [FENOFIBRATE]")
7.57

* * *

target of assay: Fatty acid-binding protein, liver (Rattus norvegicus, UniProt P02692)
method description: Binding affinity to rat recombinant L-FABP high affinity site expressed in Escherichia coli BL21(DE3) at 25 deg C by fluorimetric assay
observed property: Kd (nM)

>>> value_reported("CCOC(=O)C(C)(C)Oc1ccc(Cl)cc1 [CLOFIBRATE]")
8900
>>> value_reported("CC(C)OC(=O)C(C)(C)Oc1ccc(C(=O)c2ccc(Cl)cc2)cc1 [FENOFIBRATE]")
32
>>> value_reported("CC(C)(Oc1ccc(C(=O)c2ccc(Cl)cc2)cc1)C(=O)O")
340

* * *

target of assay: Fatty acid-binding protein, liver (Rattus norvegicus, UniProt P02692)
Sequence (P02692 whole entry): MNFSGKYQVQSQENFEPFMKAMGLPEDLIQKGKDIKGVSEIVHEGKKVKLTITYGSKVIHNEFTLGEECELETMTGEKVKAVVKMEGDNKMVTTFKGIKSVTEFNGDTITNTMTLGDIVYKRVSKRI
method description: Binding affinity to rat recombinant L-FABP low affinity site expressed in Escherichia coli BL21(DE3) at 15 deg C by fluorimetric assay
observed property: Kd

>>> value_reported("CC(C)OC(=O)C(C)(C)Oc1ccc(C(=O)c2ccc(Cl)cc2)cc1 [FENOFIBRATE]")
"0.16 µM"
>>> value_reported("CC(C)(Oc1ccc(C(=O)c2ccc(Cl)cc2)cc1)C(=O)O")
"20 µM"

* * *

target of assay: Fatty acid-binding protein, liver (Rattus norvegicus) (UniProt P02692)
method description: Binding affinity to rat recombinant L-FABP low affinity site expressed in Escherichia coli BL21(DE3) assessed as occupancy at a drug-protein molar ratio of 3:1 by NMR chemical shift perturbation method
Property: Activity; scope: individual compounds
observed property: Activity

>>> value_reported("CC(C)(Oc1ccc(C(=O)c2ccc(Cl)cc2)cc1)C(=O)O")
"96%"
>>> value_reported("CC(C)(Oc1ccc(C2CC2(Cl)Cl)cc1)C(=O)O (stereo unspecified)")
"85%"
>>> value_reported("CC(C)(Oc1ccc(CCNC(=O)c2ccc(Cl)cc2)cc1)C(=O)O")
"93%"
>>> value_reported("Cc1ccc(C)c(OCCCC(C)(C)C(=O)O)c1")
"79%"
>>> value_reported("CC(C)OC(=O)C(C)(C)Oc1ccc(C(=O)c2ccc(Cl)cc2)cc1 [FENOFIBRATE]")
"100%"

* * *

Property: pKd; scope: individual compounds
target of assay: Fatty acid-binding protein, liver (Rattus norvegicus)
method description: Binding affinity to rat recombinant L-FABP low affinity site expressed in Escherichia coli BL21(DE3) at 42 deg C by fluorimetric assay
pKd: −log10 of the molar value.
observed property: pKd

>>> value_reported("CC(C)(Oc1ccc(C(=O)c2ccc(Cl)cc2)cc1)C(=O)O")
4.54
>>> value_reported("CC(C)OC(=O)C(C)(C)Oc1ccc(C(=O)c2ccc(Cl)cc2)cc1 [FENOFIBRATE]")
6.44
